Each entry below carries its reported INHIBITION.
System: Plasmodium falciparum
Assay: Screen against P. falciparum Asexual Blood Stage (ABS), at 5uM
Type: functional, Dd2
Conditions: tested at 5 uM
The campaign covered roughly 65,000 compounds. About 2,100 (3.2%) showed an effect of 50% or more. The median lay at about -52%. The list comes from a sample in which strong results are over-represented; it also holds close analogues and randomly drawn compounds.
Please give a number only; it is taken to be in %.

Before answering, review these 3 worked examples.
| COMPOUND | TARGET_OR_SYSTEM | INHIBITION, % |
| --- | --- | --- |
| N#Cc1ccc(N2CCCC3(CCN(c4cncnc4)C3=O)C2)nc1 (stereo unspecified) | Plasmodium falciparum | -38.5 |
| O=C(c1ccoc1)N1CC[C@@H]2O[C@@H](COCc3ccccn3)CC[C@@H]21 | Plasmodium falciparum | -109 |
| O=C1CCC2(CCC(NCc3cccnc3)CC2)N1Cc1ccccc1 (stereo unspecified) | Plasmodium falciparum | -16.6 |

Q: Can you share its INHIBITION? I mean this compound: CN(Cc1n[nH]c2c1CCC2)c1nc(C2CCCC2)nc2c1CNC2
Result: 2.51

Q: Fill in: INHIBITION of O=C1CNc2ncnc(N3CCN(Cc4cccc(F)c4)CC3)c2N1 is ___
Result: -56.6

Q: Need INHIBITION, item CN(Cc1n[nH]c2c1CCCC2)c1nc2c(c(=O)[nH]1)CCNCC2
Result: 65.3
